# reported TL1A Binding Level (Late); entries follow
Biological target: T1, human TL1A extracellular domain with N-terminal HIS and FLAG tag (human, UniProt O95150 72-251)
T1 construct: the whole entry is named; also called TNFSF15
T1 sequence: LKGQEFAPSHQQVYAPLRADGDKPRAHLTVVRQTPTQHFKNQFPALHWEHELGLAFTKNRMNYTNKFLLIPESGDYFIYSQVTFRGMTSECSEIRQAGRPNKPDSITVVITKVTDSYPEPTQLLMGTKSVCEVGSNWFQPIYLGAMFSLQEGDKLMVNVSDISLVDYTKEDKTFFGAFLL
Test: SPR Run 7, antibody on Protein A, TL1A 5 ug/mL, timepoint 220
I only need the number, in RU, no unit after it.

>  <binder>
320-505 (antibody, human IgG1, name in Kabat numbering, V domains shown, full-length human IgG1, lambda) VH: QVQLVQSGAEVKKPGASVKVSCKASGYTFTSYDINWVRQAPGQGLEWMGWLNANSGNTGYAQKFQGRVTMTADRSTSTAYMELSSLRSEDTAVYYCAREVPETAAFEYWGQGTLVTVSS VL: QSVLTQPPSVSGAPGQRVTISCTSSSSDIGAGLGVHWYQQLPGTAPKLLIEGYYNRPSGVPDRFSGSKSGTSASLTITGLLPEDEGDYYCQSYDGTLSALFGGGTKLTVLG

>  <measurement.units>
RU

>  <result.number>
110

$$$$
>  <binder>
320-579 (antibody, human IgG1, name in Kabat numbering, V domains shown, full-length human IgG1, lambda) VH: QVQLVQSGAEVKKPGASVKVSCKASGYTFTSYDINWVRQAPGQGLEWMGWLLPNSGNTGYAQKFQGRVTMTADRSTSTAYMELSSLRSEDTAVYYCAREVPETAAFEYWGQGTLVTVSS VL: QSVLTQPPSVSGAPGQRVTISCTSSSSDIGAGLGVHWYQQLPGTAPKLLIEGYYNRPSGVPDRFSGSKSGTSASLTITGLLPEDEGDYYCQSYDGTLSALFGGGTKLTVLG

>  <measurement.units>
RU

>  <result.number>
41

$$$$
>  <binder>
320-524 (antibody, human IgG1, name in Kabat numbering, V domains shown, full-length human IgG1, lambda) VH: QVQLVQSGAEVKKPGASVKVSCKASGYTFTSYDINWVRQAPGQGLEWMGWLNPNQGNTGYAQKFQGRVTMTADRSTSTAYMELSSLRSEDTAVYYCAREVPETAAFEYWGQGTLVTVSS VL: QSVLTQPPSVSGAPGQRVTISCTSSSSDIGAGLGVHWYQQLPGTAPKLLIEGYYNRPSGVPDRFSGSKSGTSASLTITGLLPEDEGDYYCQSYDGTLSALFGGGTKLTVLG

>  <measurement.units>
RU

>  <result.number>
49

$$$$
>  <binder>
320-549 (antibody, human IgG1, name in Kabat numbering, V domains shown, full-length human IgG1, lambda) VH: QVQLVQSGAEVKKPGASVKVSCKASGYTFTSYDINWVRQAPGQGLEWMGWLNPNSGNSGYAQKFQGRVTMTADRSTSTAYMELSSLRSEDTAVYYCAREVPETAAFEYWGQGTLVTVSS VL: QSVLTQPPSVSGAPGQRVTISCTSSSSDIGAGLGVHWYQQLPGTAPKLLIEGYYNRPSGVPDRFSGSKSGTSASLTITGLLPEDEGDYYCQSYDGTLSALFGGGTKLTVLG

>  <measurement.units>
RU

>  <result.number>
45

$$$$

Continue with the binder presented below.
What TL1A Binding Level (Late) value was documented for this binder, 320-580 (antibody, human IgG1, name in Kabat numbering, V domains shown, full-length human IgG1, lambda) VH: QVQLVQSGAEVKKPGASVKVSCKASGYTFTSYDINWVRQAPGQGLEWMGWLNPNSYNTGYAQKFQGRVTMTADRSTSTAYMELSSLRSEDTAVYYCAREVPETAAFEYWGQGTLVTVSS VL: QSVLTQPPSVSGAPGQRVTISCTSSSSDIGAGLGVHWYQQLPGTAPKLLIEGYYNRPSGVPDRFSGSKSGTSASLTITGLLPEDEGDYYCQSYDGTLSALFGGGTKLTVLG ?
47
